# System under test: CK1α (Homo sapiens)
# Construct: HEK293 clonal lines with CRISPR KI HiBiT tag on CSNK1A1
# Sequence (P48729 whole entry): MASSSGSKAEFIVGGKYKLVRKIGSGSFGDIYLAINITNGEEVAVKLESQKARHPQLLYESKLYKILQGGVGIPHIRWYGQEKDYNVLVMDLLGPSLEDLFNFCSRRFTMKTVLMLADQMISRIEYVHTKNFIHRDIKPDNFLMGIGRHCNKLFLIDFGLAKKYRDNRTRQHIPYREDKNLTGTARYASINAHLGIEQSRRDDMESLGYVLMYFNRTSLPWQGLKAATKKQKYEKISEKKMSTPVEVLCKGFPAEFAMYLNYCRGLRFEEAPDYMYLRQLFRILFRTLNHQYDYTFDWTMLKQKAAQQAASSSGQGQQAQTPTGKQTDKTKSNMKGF
# Sequence (Q96SW2 whole entry, further chain): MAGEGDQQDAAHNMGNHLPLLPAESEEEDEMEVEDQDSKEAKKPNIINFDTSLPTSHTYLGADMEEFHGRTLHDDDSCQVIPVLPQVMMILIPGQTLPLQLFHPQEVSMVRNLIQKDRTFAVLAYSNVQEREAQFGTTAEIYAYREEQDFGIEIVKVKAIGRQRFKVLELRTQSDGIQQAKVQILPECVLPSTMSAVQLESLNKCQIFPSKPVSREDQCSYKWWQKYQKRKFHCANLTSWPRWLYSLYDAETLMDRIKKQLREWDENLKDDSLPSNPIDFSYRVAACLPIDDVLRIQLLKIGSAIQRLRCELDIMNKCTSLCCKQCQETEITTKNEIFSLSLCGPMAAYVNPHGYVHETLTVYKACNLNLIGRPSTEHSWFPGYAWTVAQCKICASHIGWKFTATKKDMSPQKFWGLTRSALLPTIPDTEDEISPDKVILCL
# Sequence (Q16531 2-1140 partner limits assumed): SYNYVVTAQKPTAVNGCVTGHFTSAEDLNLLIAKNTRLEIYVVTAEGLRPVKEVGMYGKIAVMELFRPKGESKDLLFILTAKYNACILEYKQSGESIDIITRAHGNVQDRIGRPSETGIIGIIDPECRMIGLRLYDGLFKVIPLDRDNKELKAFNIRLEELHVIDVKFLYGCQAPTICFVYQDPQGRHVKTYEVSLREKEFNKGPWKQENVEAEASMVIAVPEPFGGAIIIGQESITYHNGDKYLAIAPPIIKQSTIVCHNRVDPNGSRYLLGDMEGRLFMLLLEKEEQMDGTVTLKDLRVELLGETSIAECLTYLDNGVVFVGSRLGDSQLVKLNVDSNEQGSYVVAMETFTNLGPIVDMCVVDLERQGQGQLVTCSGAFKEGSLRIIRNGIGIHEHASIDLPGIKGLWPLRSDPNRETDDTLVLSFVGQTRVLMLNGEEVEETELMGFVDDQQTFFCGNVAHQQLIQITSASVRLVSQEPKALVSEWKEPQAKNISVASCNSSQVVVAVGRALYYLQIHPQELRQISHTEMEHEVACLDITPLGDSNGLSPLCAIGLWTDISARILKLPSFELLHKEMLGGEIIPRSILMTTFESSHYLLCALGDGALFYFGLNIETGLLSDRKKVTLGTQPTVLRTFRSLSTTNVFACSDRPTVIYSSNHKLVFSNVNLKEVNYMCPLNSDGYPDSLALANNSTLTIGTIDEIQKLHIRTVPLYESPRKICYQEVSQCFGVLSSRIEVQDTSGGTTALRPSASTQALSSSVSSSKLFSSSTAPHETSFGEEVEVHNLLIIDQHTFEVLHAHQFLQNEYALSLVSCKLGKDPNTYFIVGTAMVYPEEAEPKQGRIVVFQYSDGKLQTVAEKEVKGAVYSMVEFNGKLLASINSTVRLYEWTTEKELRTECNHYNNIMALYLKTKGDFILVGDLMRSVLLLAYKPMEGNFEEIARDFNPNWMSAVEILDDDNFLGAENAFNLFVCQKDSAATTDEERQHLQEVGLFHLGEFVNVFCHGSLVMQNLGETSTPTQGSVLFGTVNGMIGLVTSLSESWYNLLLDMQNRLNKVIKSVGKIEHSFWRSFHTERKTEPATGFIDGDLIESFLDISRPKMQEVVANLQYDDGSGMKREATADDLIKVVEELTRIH
# Assay notes: CK1α NanoBit Assay (HiBiT-tagged CSNK1A1, HEK293 clonal lines)
# Assay type: cell-based
# Reported conditions: HEK293 HiBiT-CSNK1A1/LgBiT cells, 24 h incubation
Measured DC50 accompanies every entry in the list below.

Solved entries (count: 5):
COc1ccc2c(c1)CN(C(=O)Nc1ccc3c(c1)CN(C1CCC(=O)NC1=O)C3=O)C2 (stereo not drawn) = < 0.1 µM
CC1CN(C(=O)Nc2ccc3c(c2)CN(C2CCC(=O)NC2=O)C3=O)c2ccccc21 (stereo in doubt) [Compound 283] = < 0.1 µM
O=C1CCC(N2Cc3cc(NC(=O)N4CC(c5ccccc5F)C4)ccc3C2=O)C(=O)N1 (stereo not drawn) = < 0.1 µM
COC[C@@H]1CN(C(=O)Nc2ccc3c(c2)CN(C2CCC(=O)NC2=O)C3=O)c2ccccc21 (stereo partly drawn) = < 0.1 µM
O=C1CC[C@H](N2Cc3cc(NC(=O)N4c5ccccc5C[C@H]4C(F)(F)F)ccc3C2=O)C(=O)N1 (single isomer, unassigned) = < 0.1 µM

The recorded DC50 for entry COC[C@@H]1Cc2cc(C(F)(F)F)ccc2N1C(=O)Nc1ccc2c(c1)CN(C1CCC(=O)NC1=O)C2=O (stereo partly drawn) equals < 0.1 µM

The recorded DC50 for entry O=C1CCC(N2Cc3cc(NC(=O)N4CCc5ccc(C6CC6)cc54)ccc3C2=O)C(=O)N1 (stereo not drawn) equals < 0.1 µM
